Recorded IC50 for the following compounds
biological target: 5HT-transporter (Homo sapiens); construct: Human platelet membranes (Oceanix Biosciences Corporation, Hanover, Md., USA) were thawed; tissue Oceanix Biosciences Corporation, Hanover, Md., USA; host or cells: human platelet membranes; assay: Binding experiment for the 5HT-transporter ([3H]paroxetine, human platelet membranes); details: [3H]paroxetine 0.5 nM, 60 min at 25° C., read-out: h-5HTT pIC50 (converted)
Sequence (P31645 whole entry): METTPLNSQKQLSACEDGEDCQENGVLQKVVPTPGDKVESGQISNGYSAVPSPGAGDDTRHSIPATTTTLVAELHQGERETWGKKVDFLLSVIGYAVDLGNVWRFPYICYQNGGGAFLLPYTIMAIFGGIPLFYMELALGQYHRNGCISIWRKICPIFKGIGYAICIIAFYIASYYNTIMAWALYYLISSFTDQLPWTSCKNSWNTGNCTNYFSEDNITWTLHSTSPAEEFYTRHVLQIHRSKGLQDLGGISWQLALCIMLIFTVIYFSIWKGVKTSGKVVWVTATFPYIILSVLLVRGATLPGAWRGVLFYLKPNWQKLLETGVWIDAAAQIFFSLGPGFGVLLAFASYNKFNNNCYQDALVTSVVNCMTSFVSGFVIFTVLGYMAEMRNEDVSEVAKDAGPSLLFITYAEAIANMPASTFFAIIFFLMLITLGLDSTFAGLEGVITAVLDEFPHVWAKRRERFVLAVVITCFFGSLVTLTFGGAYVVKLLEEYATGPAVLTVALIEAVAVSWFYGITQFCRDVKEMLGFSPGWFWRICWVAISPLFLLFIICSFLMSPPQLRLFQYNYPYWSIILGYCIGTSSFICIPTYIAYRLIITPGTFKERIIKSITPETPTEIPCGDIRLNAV
Unit nM implied. Number only.

// below: answered compounds
IC50 recorded for this compound, O=c1[nH]c(-c2cccc(CNCC3CCCO3)c2)c(Cl)nc1NC1CCN(Cc2ccc3ccccc3c2)CC1 (centres unmarked) , is 398

IC50 recorded for this compound, CCCCNc1cccc(-n2ccnc(NC3CCN(Cc4ccc5ccccc5c4)CC3)c2=O)c1 , is 20

IC50 recorded for this compound, O=c1c(NC2CCN(Cc3ccc4ccccc4c3)CC2)nccn1-c1ccc(NCC2CCCO2)cc1 (centres unmarked) , is 15.8

IC50 recorded for this compound, O=c1c(NC2CCN(Cc3ccc4ccccc4n3)CC2)nccn1CCOc1ccccc1 , is 631

IC50 recorded for this compound, O=c1c(NC2CCN(Cc3ccc4ccccc4c3)CC2)nccn1-c1ccsc1 , is 39.8

Next:
IC50 recorded for this compound, CCOC(CCn1ccnc(NC2CCN(Cc3ccc4ccccc4c3)CC2)c1=O)OC (centres unmarked) , is 200

----------
Recorded IC50 for the following compounds
target: human adrenergic-α2C receptor (Homo sapiens, UniProt P18825); construct: expressed in transfected cells; host or cells: CHO cells, stably transfected; membrane preparation; assay: Radioligand binding experiment for hα2C-adrenoceptor ([3H]raulwolscine); conditions: [3H]raulwolscine 1 nM, 60 minutes at 25° C.; read-out: h-α2C pIC50 (converted)
Unit nM implied. Number only.

IC50 recorded for this compound, O=C(Cn1ccnc(NC2CCN(Cc3ccc4ccccc4c3)CC2)c1=O)N1CCN(c2ccccc2)CC1 [2-05] , is 39.8

More entries:
IC50 recorded for this compound, O=c1c(NC2CCN(Cc3ccc4ccccc4c3)CC2)nccn1-c1ccc(CNCc2ccco2)cc1 [1-82] , is 12.6

IC50 recorded for this compound, COC(=O)c1ccc(-n2ccnc(NC3CCN(Cc4ccc5ccccc5c4)CC3)c2=O)cc1 [3-05] , is 79.4

IC50 recorded for this compound, O=C(CCn1ccnc(NC2CCN(Cc3ccc4ccccc4c3)CC2)c1=O)c1ccccc1 [5-08] , is 50.1

IC50 recorded for this compound, O=C(Cn1ccnc(NC2CCN(Cc3ccc4ccccc4c3)CC2)c1=O)NCCc1ccccc1 [1-71] , is 20

IC50 recorded for this compound, CCCNC(=O)NCc1ccc(-n2ccnc(NC3CCN(Cc4ccc5ccccc5c4)CC3)c2=O)cc1 [1-40] , is 100

IC50 recorded for this compound, CCCC(=O)NCc1ccc(-n2ccnc(NC3CCN(Cc4ccc5ccccc5c4)CC3)c2=O)cc1OC [1-25] , is 39.8

----------
target: human adrenergic-α2C receptor (Homo sapiens, UniProt P18825); construct: expressed in transfected cells; host or cells: CHO cells, stably transfected; membrane preparation; test: Radioligand binding experiment for hα2C-adrenoceptor ([3H]raulwolscine); details: [3H]raulwolscine 1 nM, 60 minutes at 25° C.; read-out: h-α2C pIC50 (converted)
observation.type: IC50 (nM)
Unit nM implied. Number only.

// below: answered molecules
IC50 recorded for this molecule, O=c1c(NC2CCN(Cc3ccc4ccccc4c3)CC2)nccn1CCN1CCCCC1 [2-10] , is 25.1

IC50 recorded for this molecule, O=C(Cc1ccsc1)NCc1ccc(-n2ccnc(NC3CCN(Cc4ccc5ccccc5c4)CC3)c2=O)cc1 [1-95] , is 20

More entries:
IC50 recorded for this molecule, O=C1CN(Cc2ccc(-n3ccnc(NC4CCN(Cc5ccc6ccccc6c5)CC4)c3=O)cc2)CCN1 [2-04] , is 25.1

IC50 recorded for this molecule, O=C(CNCCCn1ccnc(NC2CCN(Cc3ccc4ccccc4c3)CC2)c1=O)c1coc2ccccc12 [1-103] , is 31.6

----------
molecular target: human adrenergic-α2C receptor (Homo sapiens, UniProt P18825); construct: expressed in transfected cells; host or cells: CHO cells, stably transfected; membrane preparation; assay: Radioligand binding experiment for hα2C-adrenoceptor ([3H]raulwolscine); settings: [3H]raulwolscine 1 nM, 60 minutes at 25° C.; read-out: h-α2C pIC50 (converted)
observation.type: log10 IC50 (log10 of the value in nM)
Plainly stated, the numbers are log10 of IC50 given in nM.

log10 IC50 recorded for this compound, CN1CCN(Cc2cccc(-c3[nH]c(=O)c(NC4CCN(Cc5ccc6ccccc6c5)CC4)nc3Cl)c2)CC1 , is 2.00

More entries:
log10 IC50 recorded for this compound, COC(=O)CN(C)Cc1ccc(-n2ccnc(NC3CCN(Cc4ccc5ccccc5c4)CC3)c2=O)cc1 , is 1.70

log10 IC50 recorded for this compound, CCOC(=O)CCCCn1ccnc(NC2CCN(Cc3ccc4ccccc4n3)CC2)c1=O , is 2.10

----------
target: human adrenergic-α2C receptor (Homo sapiens); construct: expressed in transfected cells; host or cells: CHO cells, stably transfected; membrane preparation; assay: Radioligand binding experiment for hα2C-adrenoceptor ([3H]raulwolscine); conditions: [3H]raulwolscine 1 nM, 60 minutes at 25° C.; read-out: h-α2C pIC50 (converted)
observation.type: IC50
Write the numeric value and follow it with the unit.

// below: answered compounds
Bench note, human adrenergic-α2C receptor (Homo sapiens): entry COc1ccc(Cn2c(-c3cccc(CN4CCC(F)CC4)c3)c(Cl)nc(NC3CCN(Cc4ccc5ccccc5c4)CC3)c2=O)cc1 [8-12] , its IC50 = 79.4 nM

Bench note, human adrenergic-α2C receptor (Homo sapiens): entry CCOC(=O)CCCn1ccnc(NC2CCN(Cc3ccc4ccccc4c3)CC2)c1=O [3-06] , its IC50 = 63.1 nM

Bench note, human adrenergic-α2C receptor (Homo sapiens): entry O=c1c(NC2CCN(Cc3ccc4ccccc4c3)CC2)nccn1-c1ccc(NCCN2CCOCC2)cc1 [1-92] , its IC50 = 15.8 nM

Bench note, human adrenergic-α2C receptor (Homo sapiens): entry CN(C)C(=O)Cn1ccnc(NC2CCN(Cc3ccc4ccccc4c3)CC2)c1=O [1-15] , its IC50 = 126 nM

Next:
Bench note, human adrenergic-α2C receptor (Homo sapiens): entry O=c1[nH]ccnc1NC1CCN(Cc2ccc3ncccc3c2)CC1 [9-13] , its IC50 = 398 nM

----------
Recorded IC50 for the following molecules
Target: human adrenergic-α2C receptor (Homo sapiens)
Construct: expressed in transfected cells; host or cells: CHO cells, stably transfected; membrane preparation
Sequence (P18825 1-462): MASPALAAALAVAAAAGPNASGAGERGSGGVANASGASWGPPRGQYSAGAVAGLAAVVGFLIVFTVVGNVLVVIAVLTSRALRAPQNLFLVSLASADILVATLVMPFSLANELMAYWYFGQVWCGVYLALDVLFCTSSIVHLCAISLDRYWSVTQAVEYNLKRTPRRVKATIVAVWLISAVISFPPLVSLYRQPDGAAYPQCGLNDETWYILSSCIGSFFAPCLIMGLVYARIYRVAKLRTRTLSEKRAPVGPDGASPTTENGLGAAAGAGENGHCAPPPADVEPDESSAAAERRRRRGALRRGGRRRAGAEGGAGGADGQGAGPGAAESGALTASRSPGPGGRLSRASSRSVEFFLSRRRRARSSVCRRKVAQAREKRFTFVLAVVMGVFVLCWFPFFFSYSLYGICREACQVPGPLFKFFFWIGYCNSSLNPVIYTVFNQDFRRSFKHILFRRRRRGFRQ
Test: Radioligand binding experiment for hα2C-adrenoceptor ([3H]raulwolscine)
Conditions: [3H]raulwolscine 1 nM, 60 minutes at 25° C.; read-out: h-α2C pIC50 (converted)
Unit nM implied. Number only.

// below: answered molecules
IC50 recorded for this molecule, O=C1c2ccccc2C(=O)N1CCCn1ccnc(NC2CCN(Cc3ccc4ncccc4c3)CC2)c1=O , is 63.1

IC50 recorded for this molecule, C#CCN(C)C(=O)Cn1ccnc(NC2CCN(Cc3ccc4ccccc4c3)CC2)c1=O , is 63.1

More entries:
IC50 recorded for this molecule, O=C(Cn1ccnc(NC2CCN(Cc3ccc4ccccc4c3)CC2)c1=O)NCc1ccco1 , is 31.6

IC50 recorded for this molecule, O=C(CCN(c1nccn(CCC(=O)c2ccccc2)c1=O)C1CCN(Cc2ccnc3ccccc23)CC1)c1ccccc1 , is 631

IC50 recorded for this molecule, O=c1c(NC2CCN(Cc3ccc4ccccc4c3)CC2)nccn1CCCNCCOc1ccccc1 , is 25.1

IC50 recorded for this molecule, CN(CCCn1ccnc(NC2CCN(Cc3ccc4ccccc4c3)CC2)c1=O)C(=O)OC(C)(C)C , is 25.1

IC50 recorded for this molecule, O=C1c2ccccc2C(=O)N1CC#CCn1ccnc(NC2CCN(Cc3ccc4ccccc4n3)CC2)c1=O , is 63.1

----------
molecular target: human adrenergic-α2A receptor (Homo sapiens); construct: expressed in transfected cells; host or cells: CHO cells, stably transfected; membrane preparation; experiment: Radioligand binding experiment for hα2A-adrenergic receptor ([3H]raulwolscine); conditions: [3H]raulwolscine 1 nM, 60 minutes at 25° C.; read-out: h-α2A pIC50 (converted)
Sequence (P08913 whole entry): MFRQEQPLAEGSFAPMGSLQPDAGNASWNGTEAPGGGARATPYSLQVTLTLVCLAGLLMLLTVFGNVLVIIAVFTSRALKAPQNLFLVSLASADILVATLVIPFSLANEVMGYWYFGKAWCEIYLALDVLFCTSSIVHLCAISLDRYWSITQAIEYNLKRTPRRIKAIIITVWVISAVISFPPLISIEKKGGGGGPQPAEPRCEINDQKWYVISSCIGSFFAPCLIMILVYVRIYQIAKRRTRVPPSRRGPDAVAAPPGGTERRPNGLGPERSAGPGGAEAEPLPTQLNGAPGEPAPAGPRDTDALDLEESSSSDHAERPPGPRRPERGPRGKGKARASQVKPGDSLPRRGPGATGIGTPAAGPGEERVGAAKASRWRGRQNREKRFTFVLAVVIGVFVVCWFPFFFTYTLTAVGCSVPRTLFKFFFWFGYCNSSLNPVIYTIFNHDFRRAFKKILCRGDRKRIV
Recorded IC50 for the following compounds
Unit µM implied. Number only.

// below: answered compounds
IC50 recorded for this compound, O=Cc1ccc(-n2ccnc(NC3CCN(Cc4ccc5ccccc5c4)CC3)c2=O)cc1 , is 0.316

IC50 recorded for this compound, O=c1c(NC2CCN(Cc3ccc4ccccc4c3)CC2)nccn1Cc1cc2ccccc2cn1 , is 0.251

IC50 recorded for this compound, O=C(c1ccc(-n2ccnc(NC3CCN(Cc4ccc5ccccc5c4)CC3)c2=O)cc1)N1CCOCC1 , is 0.1

IC50 recorded for this compound, COc1ccc(Cn2c(-c3cccc(CNCC4CCCO4)c3)c(Cl)nc(NC3CCN(Cc4ccc5ccccc5c4)CC3)c2=O)cc1 (stereo not drawn) , is 0.501

More entries:
IC50 recorded for this compound, O=C(NCCN1CCOCC1)c1ccc(-n2ccnc(NC3CCN(Cc4ccc5ccccc5c4)CC3)c2=O)cc1 , is 0.316

IC50 recorded for this compound, CNCCCn1ccnc(NC2CCN(Cc3ccc4ccccc4c3)CC2)c1=O , is 0.251

IC50 recorded for this compound, NC(=O)CCNCc1ccc(-n2ccnc(NC3CCN(Cc4ccc5ccccc5c4)CC3)c2=O)cc1 , is 0.251
